All values here come from patent US20110182946A1.

# Test Name: Equilibrium solubility of crystalline ITZ
# Assay type: physicochemical
# Settings: pH 6.8 phosphate buffer with 0.17% SDS, aqueous with cosolvent or surfactant or cyclodextrin, thermodynamic from solid; pH 6.8 media with 0.17% SDS, 37.2° C.
Measure: solubility at 18 h (µg/mL)
The figure you give is taken to be in µg/mL; do not add the unit.

## Task Specify reported solubility at 18 h for the compound shown: CCC(C)n1ncn(-c2ccc(N3CCN(c4ccc(OCC5COC(Cn6cncn6)(c6ccc(Cl)cc6Cl)O5)cc4)CC3)cc2)c1=O (stereo not shown)
## Result 14

----------
# Test Name: Equilibrium solubility of crystalline ITZ
# Format: physicochemical
# Settings: acidic media, pH 1.2, simulated gastric fluid, thermodynamic from solid
Measure: solubility thermodynamic (µg/mL)
The figure you give is taken to be in µg/mL; do not add the unit.

## Task Specify reported solubility thermodynamic for the molecule shown: CCC(C)n1ncn(-c2ccc(N3CCN(c4ccc(OCC5COC(Cn6cncn6)(c6ccc(Cl)cc6Cl)O5)cc4)CC3)cc2)c1=O (stereo not shown)
## Result 4.4
